FYI, the data here is from the supplement of paper PMC9112550.

Test system: Escherichia coli TOP10
Test: shrunken log2 fold change of peptide-encoding DNA abundance (4.5 h post-induction vs induction); higher = less antimicrobial activity (less host growth inhibition)
Conditions: time post-induction: 4.5 h; library: site-saturation at positions 5, 18, 19, 20
Entries and their shrunken log2 fold change

These solved cases illustrate the format of a correct answer.
RRIRERPPRLPRPRPRPGDSPRP : -1.02
RRIRRRPPRLPRPRPRPSKNPRP : -0.00571
RRIRCRPPRLPRPRPRPRHNPRP : -0.374
RRIRVRPPRLPRPRPRPSLEPRP : 0.163
RRIRIRPPRLPRPRPRPWEQPRP : 0.107
RRIRPRPPRLPRPRPRPKFCPRP : 0.189
RRIRARPPRLPRPRPRPYADPRP : 0.103
RRIRPRPPRLPRPRPRPDQTPRP : 0.0118

Consider the sequence shown here: RRIRNRPPRLPRPRPRPPWIPRP What is its recorded shrunken log2 fold change?
-0.0807

Consider the sequence shown here: RRIRGRPPRLPRPRPRPAWHPRP What is its recorded shrunken log2 fold change?
0.521

Consider the sequence shown here: RRIRDRPPRLPRPRPRPATCPRP What is its recorded shrunken log2 fold change?
0.171

Consider the sequence shown here: RRIRTRPPRLPRPRPRPTPIPRP What is its recorded shrunken log2 fold change?
0.139

Consider the sequence shown here: RRIRNRPPRLPRPRPRPFKPPRP What is its recorded shrunken log2 fold change?
-0.239

Consider the sequence shown here: RRIRHRPPRLPRPRPRPVHEPRP What is its recorded shrunken log2 fold change?
-0.0609

Consider the sequence shown here: RRIRSRPPRLPRPRPRPRVWPRP What is its recorded shrunken log2 fold change?
0.536

Consider the sequence shown here: RRIRTRPPRLPRPRPRPCERPRP What is its recorded shrunken log2 fold change?
-0.018

Consider the sequence shown here: RRIRFRPPRLPRPRPRPMNYPRP What is its recorded shrunken log2 fold change?
-0.582

Consider the sequence shown here: RRIRARPPRLPRPRPRPCWEPRP What is its recorded shrunken log2 fold change?
0.755

Consider the sequence shown here: RRIRMRPPRLPRPRPRPFWFPRP What is its recorded shrunken log2 fold change?
0.132

Consider the sequence shown here: RRIRIRPPRLPRPRPRPIGHPRP What is its recorded shrunken log2 fold change?
-0.0672

###

System: Escherichia coli TOP10;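 note: peptides expressed intracellularly from a pBAD plasmid library in pooled LB shake-flask culture, induced with 0.3% L-arabinose, DNA abundance read by NGS, three biological replicates, DESeq2 with apeglm shrinkage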
Assay: shrunken log2 fold change of peptide-encoding DNA abundance (4.5 h post-induction vs induction); higher = less antimicrobial activity (less host growth inhibition)
Details: time post-induction: 4.5 h; library: site-saturation at positions 5, 18, 19, 20
Everything with shrunken log2 fold change lower than -0.02 is criterion not met; everything else, including exactly -0.02, is criterion met.

// known answers, use as guide
RRIRMRPPRLPRPRPRPFIEPRP : criterion not met
RRIRERPPRLPRPRPRPRPIPRP : criterion met
RRIRGRPPRLPRPRPRPLWCPRP : criterion met
RRIRGRPPRLPRPRPRPRQPPRP : criterion met

Confirm if shrunken log2 fold change reported for the sequence RRIRPRPPRLPRPRPRPNPKPRP is -0.02 or above.
criterion met

Confirm if shrunken log2 fold change reported for the sequence RRIRTRPPRLPRPRPRPSYKPRP is -0.02 or above.
criterion not met

Confirm if shrunken log2 fold change reported for the sequence RRIRFRPPRLPRPRPRPNEKPRP is -0.02 or above.
criterion met

Confirm if shrunken log2 fold change reported for the sequence RRIRYRPPRLPRPRPRPPRFPRP is -0.02 or above.
criterion met

Confirm if shrunken log2 fold change reported for the sequence RRIRVRPPRLPRPRPRPVNPPRP is -0.02 or above.
criterion not met

Confirm if shrunken log2 fold change reported for the sequence RRIRCRPPRLPRPRPRPDEHPRP is -0.02 or above.
criterion not met

Confirm if shrunken log2 fold change reported for the sequence RRIRHRPPRLPRPRPRPIPHPRP is -0.02 or above.
criterion not met

Confirm if shrunken log2 fold change reported for the sequence RRIRHRPPRLPRPRPRPWGSPRP is -0.02 or above.
criterion not met

Confirm if shrunken log2 fold change reported for the sequence RRIRDRPPRLPRPRPRPQLWPRP is -0.02 or above.
criterion met

Confirm if shrunken log2 fold change reported for the sequence RRIRQRPPRLPRPRPRPTNLPRP is -0.02 or above.
criterion not met
